biological target: T1, M1-1; assay: scFv-phage ELISA
T1 construct: also called PD1 mutant M1-1
Note to self: OD490 under 3 means Yes, ties and anything higher get No.

Some entries whose results are on file:
PD1-32A6 (antibody, V domains shown, scFv-phage in the screening ELISA; later whole IgG) VH: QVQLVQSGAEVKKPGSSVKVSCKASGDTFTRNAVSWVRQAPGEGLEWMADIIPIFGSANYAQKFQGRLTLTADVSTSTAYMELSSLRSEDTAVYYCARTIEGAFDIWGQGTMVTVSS VL: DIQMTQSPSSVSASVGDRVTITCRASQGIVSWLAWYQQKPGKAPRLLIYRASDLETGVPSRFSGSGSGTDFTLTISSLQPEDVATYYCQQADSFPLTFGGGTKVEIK	Yes
PD1-42G4 (antibody, V domains shown, scFv-phage in the screening ELISA; later whole IgG) VH: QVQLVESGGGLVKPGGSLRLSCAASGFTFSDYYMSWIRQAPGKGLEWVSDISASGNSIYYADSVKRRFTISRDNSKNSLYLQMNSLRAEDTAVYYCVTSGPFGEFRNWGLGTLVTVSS VL: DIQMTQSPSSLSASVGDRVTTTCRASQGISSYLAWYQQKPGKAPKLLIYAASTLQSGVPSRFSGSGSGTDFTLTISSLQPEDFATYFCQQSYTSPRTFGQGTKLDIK	Yes
PD1-49A2 (antibody, V domains shown, scFv-phage in the screening ELISA; whole IgG in the other assays; also called Parent 49A2) VH: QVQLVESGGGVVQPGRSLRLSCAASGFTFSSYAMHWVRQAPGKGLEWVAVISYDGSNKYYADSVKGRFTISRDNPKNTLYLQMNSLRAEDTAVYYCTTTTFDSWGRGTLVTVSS VL: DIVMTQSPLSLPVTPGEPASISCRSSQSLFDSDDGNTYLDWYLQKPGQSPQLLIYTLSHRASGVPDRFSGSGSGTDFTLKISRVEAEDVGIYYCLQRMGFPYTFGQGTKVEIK	No

For this binder, is OD490 lower than 3? PD1-44B5 (antibody, V domains shown, scFv-phage in the screening ELISA; later whole IgG) VH: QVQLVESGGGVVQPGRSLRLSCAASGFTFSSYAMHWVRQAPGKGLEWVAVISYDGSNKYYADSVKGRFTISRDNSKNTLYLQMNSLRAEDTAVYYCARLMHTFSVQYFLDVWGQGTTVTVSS VL: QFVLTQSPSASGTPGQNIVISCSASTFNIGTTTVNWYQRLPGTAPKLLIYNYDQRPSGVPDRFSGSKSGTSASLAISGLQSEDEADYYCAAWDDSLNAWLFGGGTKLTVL
No

For this binder, is OD490 lower than 3? PD1-48A9 (antibody, V domains shown, scFv-phage in the screening ELISA; whole IgG in the other assays) VH: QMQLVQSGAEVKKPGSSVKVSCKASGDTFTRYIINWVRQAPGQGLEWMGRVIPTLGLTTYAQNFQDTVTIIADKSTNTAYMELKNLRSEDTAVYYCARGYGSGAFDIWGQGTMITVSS VL: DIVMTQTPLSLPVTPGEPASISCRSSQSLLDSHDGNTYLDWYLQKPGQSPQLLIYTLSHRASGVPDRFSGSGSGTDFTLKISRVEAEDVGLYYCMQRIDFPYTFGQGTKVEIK
No
